# ASSAY_SYSTEM: T1, human FGFR2b (Kaixia Biotechnology, catalog number FGR-HM1BB) (human, UniProt P21802-3 22-378)
# T1 construct: extracellular domain; bought; also called hFGFR2b; human FGFR2b protein
# T1 sequence (P21802 other isoform, or with tags, fused parts or gaps): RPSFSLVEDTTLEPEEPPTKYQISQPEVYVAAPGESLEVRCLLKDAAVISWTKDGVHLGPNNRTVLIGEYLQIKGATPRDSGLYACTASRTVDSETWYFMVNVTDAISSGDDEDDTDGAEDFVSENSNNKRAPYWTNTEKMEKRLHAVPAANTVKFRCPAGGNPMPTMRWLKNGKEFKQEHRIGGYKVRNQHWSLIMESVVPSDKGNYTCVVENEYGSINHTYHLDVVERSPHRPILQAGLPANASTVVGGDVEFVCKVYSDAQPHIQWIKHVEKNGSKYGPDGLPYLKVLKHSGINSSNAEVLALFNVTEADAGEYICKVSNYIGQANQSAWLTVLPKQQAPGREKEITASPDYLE
# PROTOCOL: BLI, antibody on AHC2 sensor
ENDPOINT: koff (s⁻¹)

>>> quantitative_readout("3C7-VH2-VL2 (antibody, human IgG1, kappa, V domains shown, humanized IgG1) VH: QVQLVQSGAEVKKPGASVKVSCKASGYIFRNYYIHWVRQAPGQGLEWMGAIYPDNGDTSYNQRFKVRATLTADTSTSTVYMELSSLRSEDTAVYYCARAFTYWGQGTTVTVSS VL: DIQMTQSPSSLSASVGDRVTITCGASENIYGALNWYQRKPGKAPKLLIYGATNLADGVPSRFSGSGSGTDYTLTISSLQPEDFATYYCQNVLSTPYTFGGGTKLEIKR")
0.000884
>>> quantitative_readout("3C7-VH1-VL1 (antibody, human IgG1, kappa, V domains shown, humanized IgG1) VH: QVQLVQSGAEVKKPGASVKVSCKASGYIFTNYYIHWVRQAPGQGLEWMGAIYPDNGDTSYNQRFKVRATLTADTSTSTVYMELSSLRSEDTAVYYCARAFTYWGQGTTVTVSS VL: DIQMTQSPSSLSASVGDRVTITCGASENIYGALNWYQQKPGKAPKLLIYGATNLADGVPSRFSGSGSGTDYTLTISSLQPEDVATYYCQNVLSTPYTFGGGTKVEIKR")
0.00131
